Parameter hERG current change (%, negative = inhibition) at 10uM: see the listing below.
- target under test: human ether-à-go-go-related gene (hERG) potassium channel (human);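 note: peak tail current of the secondary pulse compared with the same well before compound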
- method summary: primary screen, population patch clamp on CHO cells stably expressing hERG; higher = less effect of the substance
Screen size: about 310,000 compounds; about 14,000 (4.5%) showed an effect of 50% or more. Effects have a minus sign here. This is one part of a sample in which strong results are shown more often than they occur.
property name: hERG current change (%, negative = inhibition) at 10uM (%)

molecule: CCn1c(SCC(=O)Nc2nc(C)cs2)nnc1-c1ccco1
data value: -50.8
//
molecule: CCOC(=O)CSc1nc(N)cc(=O)[nH]1
data value: 7.78
//
molecule: C=CCn1c(CNC(=O)c2cccs2)n[nH]c1=S
data value: 15.5
//
molecule: COc1cc2c(cc1NC(=O)C(C)OC(=O)/C=C/c1ccc(OC(F)F)cc1)oc1ccccc12 (stereo not shown)
data value: 7.07
//
molecule: COc1ccc(CCN2CC(C(=O)NC3CCCCC3)CC2=O)cc1OC (stereo not shown)
data value: 10.2
//
molecule: COCCNC(=O)c1cccc(OC2CCN(Cc3ccccc3C)CC2)c1
data value: 6.34
//
molecule: CCn1c(SCC(N)=O)nnc1-c1ccco1
data value: 3.15
//
molecule: Cc1cc(C)c(OCC(=O)Nc2nnc(-c3ccco3)o2)c(C)c1
data value: 1.74
//
molecule: Cc1ccc(SCc2cc(=O)[nH]c(N3CCCCC3)n2)cc1
data value: -8.62
//
molecule: COc1ccc(Cn2c(N)c(C#N)c3nc4ccccc4nc32)cc1
data value: 11.2
//
molecule: O=[N+]([O-])c1ccc(Sc2ncc3ccccn23)nc1
data value: -51.6
//
molecule: Cc1c(NC(=O)COC(=O)/C=C/c2ccc(Cl)cc2)c(=O)n(-c2ccccc2)n1C
data value: 28.5
//
molecule: O=[N+]([O-])c1ccc(Sc2ccccn2)nc1
data value: 10.8
//
molecule: Cc1c(NC(=O)CSc2ncnc3ccccc23)c(=O)n(-c2ccccc2)n1C
data value: -38.8
//
molecule: CCn1c(SCC(=O)Nc2nncs2)nnc1-c1ccco1
data value: 17.2
//
molecule: O=C(Nc1nnc(SCC(=O)N2CCOCC2)s1)C1CC(=O)N(c2ccc(F)cc2)C1 (stereo not shown)
data value: 15
//
molecule: O=[N+]([O-])c1ccc(Sc2n[nH]c(-c3ccco3)n2)nc1
data value: -0.59
//
molecule: CC(C)C1NC(=S)N(Cc2ccccc2)C1=O (stereo not shown)
data value: 5.2
//
molecule: COc1ccc(Oc2c(C)oc3c(CN(C)C)c(O)ccc3c2=O)cc1
data value: -1.88
//
molecule: COCCNC(=O)c1cccc(OC2CCN(Cc3cccc(C(C)=O)c3)CC2)c1
data value: 6.74
//
molecule: CCOC(=O)c1cnc(SCC(=O)Nc2nc(C)c(C)s2)nc1N
data value: -61.9
//
molecule: Cc1cc(C(=O)OCC(=O)NC2CCS(=O)(=O)C2)c(C)n1-c1ccccc1 (stereo not shown)
data value: -6.8

* * *

- target under test: human ether-à-go-go-related gene (hERG) potassium channel (human, UniProt Q12809);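 note: peak tail current of the secondary pulse compared with the same well before compound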
- Sequence (Q12809 whole entry, looked up): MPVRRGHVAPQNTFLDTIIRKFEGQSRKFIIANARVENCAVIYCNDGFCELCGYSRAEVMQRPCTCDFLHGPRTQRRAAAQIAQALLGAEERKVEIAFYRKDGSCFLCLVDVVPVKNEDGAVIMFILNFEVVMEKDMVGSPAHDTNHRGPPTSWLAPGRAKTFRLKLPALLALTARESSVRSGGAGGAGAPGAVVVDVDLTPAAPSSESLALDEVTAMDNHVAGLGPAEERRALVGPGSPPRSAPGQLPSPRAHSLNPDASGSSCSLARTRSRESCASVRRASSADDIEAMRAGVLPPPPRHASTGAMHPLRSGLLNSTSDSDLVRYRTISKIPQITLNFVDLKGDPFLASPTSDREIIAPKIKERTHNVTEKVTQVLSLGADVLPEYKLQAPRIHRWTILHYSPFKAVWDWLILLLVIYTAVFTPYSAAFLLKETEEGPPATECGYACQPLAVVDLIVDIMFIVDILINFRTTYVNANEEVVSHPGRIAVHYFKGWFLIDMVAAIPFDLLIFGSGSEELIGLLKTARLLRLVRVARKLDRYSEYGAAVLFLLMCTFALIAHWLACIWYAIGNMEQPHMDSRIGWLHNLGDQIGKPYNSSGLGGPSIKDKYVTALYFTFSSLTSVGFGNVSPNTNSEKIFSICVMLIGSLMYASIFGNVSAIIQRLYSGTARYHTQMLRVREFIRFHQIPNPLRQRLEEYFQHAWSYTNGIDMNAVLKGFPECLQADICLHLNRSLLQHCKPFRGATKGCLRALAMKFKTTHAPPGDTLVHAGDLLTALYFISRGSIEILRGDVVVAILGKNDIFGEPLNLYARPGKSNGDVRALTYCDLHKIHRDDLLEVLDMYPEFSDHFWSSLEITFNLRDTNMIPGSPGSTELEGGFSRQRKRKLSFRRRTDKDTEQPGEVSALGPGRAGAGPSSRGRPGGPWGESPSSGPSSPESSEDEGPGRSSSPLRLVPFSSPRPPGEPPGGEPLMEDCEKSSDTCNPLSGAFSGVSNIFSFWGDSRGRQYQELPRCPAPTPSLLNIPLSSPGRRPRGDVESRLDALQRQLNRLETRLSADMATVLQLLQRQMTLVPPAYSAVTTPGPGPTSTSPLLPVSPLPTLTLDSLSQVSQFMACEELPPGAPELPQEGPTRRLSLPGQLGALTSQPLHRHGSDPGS
- method summary: primary screen, population patch clamp on CHO cells stably expressing hERG; higher = less effect of the substance
About 14,000 (4.5%) of roughly 310,000 compounds showed an effect of 50% or more. The effect is printed as a negative number. The sample holds strong results, similar compounds and a random draw of the others, so the mix is not that of the screen.
Parameter hERG current change (%, negative = inhibition) at 10uM: see the listing below.
property name: hERG current change (%, negative = inhibition) at 10uM (%)

compound: CCCCNC(=O)N1CCN(c2ccccc2OCC)CC1
output unit: %
data value: -0.115
--
compound: O=S(=O)(NCc1ccccn1)c1cc(OCC(F)(F)F)ccc1OCC(F)(F)F
output unit: %
data value: -69.9
--
compound: CCCCNC(=O)N1CCN(c2ccnc3cc(Cl)ccc23)CC1
output unit: %
data value: -78.2
--
compound: O=C(COc1ccccc1)Nc1ccc2oc(=O)ccc2c1
output unit: %
data value: 4.76
--
compound: COc1ccc(OC)c(S(=O)(=O)NCc2ccccn2)c1
output unit: %
data value: 11.9
--
compound: COc1ccc2c(CC(=O)NC(Cc3ccc(Cl)cc3)C(=O)O)cc(=O)oc2c1C (stereo not shown)
output unit: %
data value: 3.13
--
compound: COc1cccc(C(=O)NCC(=O)OCC(=O)c2ccccc2)c1
output unit: %
data value: 2.59
--
compound: CCCn1nnc(NC(=O)c2ccc(Cl)cc2Cl)n1
output unit: %
data value: 2.23
--
compound: CCOc1ccc(OCC)c(S(=O)(=O)NCc2ccccn2)c1
output unit: %
data value: -1.02
--
compound: CC(=O)N1CCN(Cc2nc3cc(Cl)ccc3c(=O)[nH]2)CC1
output unit: %
data value: -31.7
